# System: AP-1 induced transcriptional activity
# TEST METHOD NOTES: Cellular Transrepressional Assay (AP-1 luciferase reporter, PMA-activated A549 cells)
# Type: cell-based
# CONDITIONS USED: maximum inhibition, Cellular Transrepression Assay
AP-1 Max % inh (Cellular Transrepression Assay) reference
State just the number; it will be interpreted in %.

Recorded results for 6 compounds are shown here.
COMPOUND	TARGET OF ASSAY	RESULT NUMBER
CC(=O)c1ccc(-c2ccc3c(n2)Oc2ccccc2C3C(C)(C)C(=O)Nc2nncs2)cc1F (stereo not drawn)	AP-1 induced transcriptional activity	39.34
CC(C)(C(=O)Nc1nncs1)C1c2ccccc2Oc2cc(OC(=O)NCC3CCCCC3)ccc21 (stereo not drawn)	AP-1 induced transcriptional activity	44.82
CC(O)c1ccc(-c2ccc3c(n2)Oc2ccccc2C3C(C)(C)C(=O)Nc2nncs2)cc1 (mixture of isomers)	AP-1 induced transcriptional activity	44.85
CCCOc1ccc(-c2ccc3c(n2)Oc2ccccc2C3C(C)(C)C(=O)Nc2nncs2)cc1 (stereo not drawn)	AP-1 induced transcriptional activity	45.81
CCCCCc1ccc(-c2ccc3c(n2)Oc2ccccc2C3C(C)(C)C(=O)Nc2nncs2)cc1 (stereo not drawn)	AP-1 induced transcriptional activity	52.23
CCSc1ccc(-c2ccc3c(n2)Oc2ccccc2C3C(C)(C)C(=O)Nc2nncs2)cc1 (stereo not drawn)	AP-1 induced transcriptional activity	49.05

Which AP-1 Max % inh (Cellular Transrepression Assay) value is on record for "CCN(C)C(=O)c1ccc(-c2ccc3c(n2)Oc2ccccc2[C@@H]3C(C)(C)C(=O)Nc2nncs2)cc1Cl" ?
54.25

Could you share which AP-1 Max % inh (Cellular Transrepression Assay) value was measured for CC(C)(C(=O)Nc1nncs1)C1c2ccccc2Oc2nc(-c3ccc(O)cc3)ccc21 (stereo not drawn) ?
37.51

Which AP-1 Max % inh (Cellular Transrepression Assay) value is on record for CC(C)(C(=O)Nc1nncs1)C1c2ccccc2Oc2nc(-c3ccc(OCc4ccccc4)cc3)ccc21 (stereo not drawn) ?
38.37

---

# TARGET OF ASSAY: human full-length glucocorticoid receptor (Homo sapiens)
# TEST METHOD NOTES: Glucocorticoid Receptor Binding Assay (I), fluorescence polarization, Fluormone GS Red
# Set-up: purified human recombinant full-length glucocorticoid receptor; purchased Invitrogen Part #2893
# CONDITIONS USED: GR Binding Assay (I); read-out: GR (Ki, nM) (GR Binding Assay (I))
# Method: Glucocorticoid Receptor Binding Assay (I)^a Briefly, purified human recombinant full-length glucocorticoid receptor (2 nM) was mixed with fluorescently labeled glucocorticoid (1 nM Fluormone GS Red) in the presence or absence of test compound. After two hour incubation at room temperature in the dark, the fluorescence polarization (FP) of the samples was measured. […] Test compounds were analyzed in the concentration range from 8.5E-05 μM to 5 μM.
OBSERVATION TYPE: Ki (nM)
The reply should contain only the number, in nM.

Known Ki results, listed for orientation:
MOLECULE	TARGET OF ASSAY	Ki, nM
CC(C)(C(=O)Nc1nncs1)C1c2ccccc2Oc2cc(-c3ccc(C(=O)O)s3)ccc21 (centres unmarked) [Example 103]	human full-length glucocorticoid receptor (Homo sapiens)	6.06
CN(C)C(=O)c1ccc(-c2ccc3c(n2)Oc2ccccc2C3C(C)(C)C(=O)NC(C)(C)C)cc1 (centres unmarked) [Example 362]	human full-length glucocorticoid receptor (Homo sapiens)	805
CC(C)(C(=O)Nc1nncs1)[C@H]1c2ccccc2Oc2nc(-c3ccc(C(=O)N(CCO)CCO)cc3)ccc21 [Example 304]	human full-length glucocorticoid receptor (Homo sapiens)	149
CC(C)(C(=O)Nc1nncs1)C1c2ccccc2Oc2cc(NC(=O)NC3CC3)ccc21 (centres unmarked) [Example 124]	human full-length glucocorticoid receptor (Homo sapiens)	65.1

Quick one: Ki for CC(C)(C(=O)Nc1nncs1)[C@H]1c2ccccc2Oc2nc(-c3ccc(C(=O)N4CCCOCC4)cc3)ccc21 [Example 323] ?
3.69

Reported Ki for CCN(CCO)C(=O)c1ccc(-c2ccc3c(n2)Oc2ccccc2[C@@H]3C(C)(C)C(=O)Nc2nncs2)cc1 [Example 320] : what is it?
13.1

Quick check: Ki of CN(C)S(=O)(=O)c1ccc(-c2ccc3c(n2)Oc2ccccc2[C@@H]3C(C)(C)C(=O)Nc2nncs2)cc1 [Example 232] ?
4.57

Which value of Ki has been reported for CC(C)CCN(C)C(=O)c1ccc(-c2ccc3c(n2)Oc2ccccc2[C@@H]3C(C)(C)C(=O)Nc2nncs2)cc1 [Example 270] in the records?
20.9

Which Ki is listed for Cc1cc(-c2ccc3c(n2)Oc2ccccc2[C@@H]3C(C)(C)C(=O)Nc2nncs2)ccc1OC(C)C [Example 224] ?
8.06

Please give the measured Ki for this molecule: COC(=O)[C@H]1CCCCN1C(=O)c1ccc(-c2ccc3c(n2)Oc2ccccc2[C@@H]3C(C)(C)C(=O)Nc2nncs2)cc1 [Example 291]
44

Look up Ki for this molecule: CC(C)(C(=O)Nc1nncs1)[C@H]1c2ccccc2Oc2nc(C#N)ccc21 [Example 395]
1.19

Item CC1(C)CCCN(C(=O)c2ccc(-c3ccc4c(n3)Oc3ccccc3[C@@H]4C(C)(C)C(=O)Nc3nncs3)cc2)C1 [Example 271] has what recorded Ki?
218

Need Ki, item CN(CC(=O)O)C(=O)c1ccc(-c2ccc3c(n2)Oc2ccccc2[C@@H]3C(C)(C)C(=O)Nc2nncs2)cc1 [Example 338]
312

Tell me the measured Ki of CC1CCN(C(=O)c2ccc(-c3ccc4c(n3)Oc3ccccc3[C@@H]4C(C)(C)C(=O)Nc3nncs3)cc2)CC1 [Example 268] , please.
9.45

Which Ki is listed for CC(C)CC1CCCN1C(=O)c1ccc(-c2ccc3c(n2)Oc2ccccc2[C@@H]3C(C)(C)C(=O)Nc2nncs2)cc1 (some centres unmarked) [Example 317] ?
23.7

Name the reported Ki value associated with the molecule COc1ccc(-c2ccc3c(n2)Oc2ccccc2[C@@H]3C(C)(C)C(=O)Nc2nncs2)cn1 [Example 218]
1.24

---

Item-by-item account of AP-1 Max % inh (Cellular Transrepression Assay)
# Test system: AP-1 induced transcriptional activity
# TEST METHOD NOTES: Cellular Transrepressional Assay (AP-1 luciferase reporter, PMA-activated A549 cells)
# Type: cell-based
# CONDITIONS USED: maximum inhibition, Cellular Transrepression Assay
# Experimental: Cellular Transrepressional Assay To measure the ability of test molecules to inhibit AP-1 induced transcriptional activity we utilized an A549 cell which was stably transfected with a plasmid containing 7× AP-1 DNA binding sites (pAP-1-Luc plasmid, Stratagene Co. La Jolla, Calif.) followed by the gene for luciferase. […] After a 10 minute incubation of luciferase reagent with cells, luminescence was measured in a TopCount luminescence counter. […]
Give your result in % as a bare value.

What value of measured AP-1 Max % inh (Cellular Transrepression Assay) is listed for Cc1cnc(NC(=O)C(C)(C)C2c3ccccc3Oc3nc(-c4ccc(C(=O)N(C)C)cc4)ccc32)s1 (centres unmarked) [Example 364] ?
58.90

Which AP-1 Max % inh (Cellular Transrepression Assay) value belongs to CCC(C)NC(=O)Oc1ccc2c(c1)Oc1ccccc1C2C(C)(C)C(=O)Nc1nncs1 (centres unmarked) [Example 383] ?
41.78

Quick one: AP-1 Max % inh (Cellular Transrepression Assay) for CC(C)(C(=O)Nc1nncs1)C1c2ccccc2Oc2cc(OC(=O)NCc3ccccc3)ccc21 (centres unmarked) [Example 389] ?
55.20

Which AP-1 Max % inh (Cellular Transrepression Assay) value belongs to CN(C)C(=O)c1ccc(-c2ccc3c(n2)Oc2c(F)cccc2C3C(C)(C)C(=O)Nc2nncs2)cc1 (racemic) [Example 164] ?
57.26

AP-1 Max % inh (Cellular Transrepression Assay) for COc1ccc(CNC(=O)Oc2ccc3c(c2)Oc2ccccc2C3C(C)(C)C(=O)Nc2nncs2)cc1 (centres unmarked) [Example 391] ?
44.08

---

# TARGET OF ASSAY: human full-length glucocorticoid receptor (Homo sapiens, UniProt P04150)
# Sequence (P04150 whole entry): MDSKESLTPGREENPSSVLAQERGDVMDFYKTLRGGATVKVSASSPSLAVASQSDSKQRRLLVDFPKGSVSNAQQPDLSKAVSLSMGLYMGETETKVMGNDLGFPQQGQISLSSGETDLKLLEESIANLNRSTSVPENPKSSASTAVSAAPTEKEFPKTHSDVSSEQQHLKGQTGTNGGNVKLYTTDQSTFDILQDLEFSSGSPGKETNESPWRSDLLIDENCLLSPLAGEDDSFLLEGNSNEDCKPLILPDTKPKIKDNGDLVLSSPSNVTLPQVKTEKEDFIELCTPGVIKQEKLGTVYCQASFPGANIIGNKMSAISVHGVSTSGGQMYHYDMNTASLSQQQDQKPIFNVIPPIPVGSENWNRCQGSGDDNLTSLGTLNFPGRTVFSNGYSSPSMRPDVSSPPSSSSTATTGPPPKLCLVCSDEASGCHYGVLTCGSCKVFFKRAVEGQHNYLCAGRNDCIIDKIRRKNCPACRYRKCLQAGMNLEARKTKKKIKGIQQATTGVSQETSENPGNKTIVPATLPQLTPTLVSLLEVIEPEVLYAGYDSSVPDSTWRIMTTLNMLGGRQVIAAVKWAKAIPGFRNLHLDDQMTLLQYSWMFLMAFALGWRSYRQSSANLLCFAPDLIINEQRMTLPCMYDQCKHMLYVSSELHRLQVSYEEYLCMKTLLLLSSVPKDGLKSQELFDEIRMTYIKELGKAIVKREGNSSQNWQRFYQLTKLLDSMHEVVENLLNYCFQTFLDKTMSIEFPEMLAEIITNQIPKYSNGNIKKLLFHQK
# TEST METHOD NOTES: Glucocorticoid Receptor Binding Assay (II), fluorescence polarization, FITC-dexamethasone
# Set-up: recombinantly expressed human full-length glucocorticoid receptor; purchased PanVera Co., Madison P2816
# CONDITIONS USED: GR Binding Assay (II); read-out: GR (Ki, nM) (GR Binding Assay (II))
Param label: returns yes when Ki < 100 nM, returns no otherwise, including exact equality.

Here are 2 molecules together with their reported answers.
MOLECULE	CLASS ASSIGNMENT
COc1ccc2c(c1)Oc1ccccc1[C@@H]2C(C)(C)C(=O)Nc1ncc[nH]1	no
CC(C)(C(=O)Nc1nncs1)C1c2ccccc2Oc2ccccc21	yes

Does the reported Ki of the following molecule sit strictly below 100 nM? COc1ccc(CNc2ccc3c(n2)Oc2ccccc2[C@H]3C(C)(C)C(=O)Nc2nncs2)cc1 (racemic)
no

Determine if "COc1ccc2c(c1)Oc1ccccc1[C@H]2C(C)(C)C(=O)Nc1nccs1" shows Ki strictly lower than 100 nM.
no

Quick check: does "C[C@@H](Nc1ccc2c(n1)Oc1ccccc1[C@@H]2C(C)(C)C(=O)Nc1nncs1)c1ccccc1" have Ki under 100 nM?
no

Lab note: confirm whether the reported Ki for this molecule is below 100 nM, equality not counting. molecule: CC(C)(C(=O)Nc1ncns1)C1c2ccccc2Oc2ncccc21 (stereo not shown)
no

Bench note: check whether CC1CCCN(c2ccc3c(n2)Oc2ccccc2[C@@H]3C(C)(C)C(=O)Nc2nncs2)C1 (stereo partly shown) shows Ki below 100 nM
yes

Reference source for all entries: patent US8034940B2
